experiment: Plasma clearance in Sprague-Dawley rat at 20 mg/kg, po and 5 mg/kg, iv; assay type: ADME, organism-based
MEASURED ATTRIBUTE: clearance
Could you kindly put the unit after your number?

Ask: Value lookup for clearance; key = Cc1sc(C)c(C(=O)NC2(c3ccc(C(=O)O)cc3)CC2)c1Cc1ccc(C(F)(F)F)cc1
Result: 9.2 mL/min/kg

---

Measured Ki, listed per entry.
Target protein (sequence): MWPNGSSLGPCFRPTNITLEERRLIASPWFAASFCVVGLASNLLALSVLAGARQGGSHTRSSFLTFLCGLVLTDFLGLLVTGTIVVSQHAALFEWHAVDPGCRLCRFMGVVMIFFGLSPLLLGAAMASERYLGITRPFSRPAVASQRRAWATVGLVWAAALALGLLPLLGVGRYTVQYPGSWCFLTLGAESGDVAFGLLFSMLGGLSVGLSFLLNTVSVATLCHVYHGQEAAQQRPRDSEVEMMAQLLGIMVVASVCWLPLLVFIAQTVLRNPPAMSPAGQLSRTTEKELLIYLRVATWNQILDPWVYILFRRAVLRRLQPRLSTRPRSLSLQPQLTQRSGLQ

Recorded Ki, per entry:
Cc1sc(C)c(C(=O)N[C@@H](C)c2ccc(C(=O)O)cc2)c1Cc1ccc(Cl)cc1 = > 2120 nM
O=C(O)c1ccc(CNC(=O)c2c(Cl)sc(Cl)c2Cc2cccc(Cl)c2)cc1 = > 628 nM
Cc1sc(C)c(C(=O)NC2(c3ccc(-c4nn[nH]n4)cc3)CC2)c1Cc1ccc(C(F)(F)F)cc1 = > 501 nM

Next compound, please.
Ask: Value lookup for Ki; key = Cc1sc(C)c(C(=O)NC2(c3ccc(C(=O)O)cc3)CC2)c1Cc1cccc(C(F)(F)F)c1
Result: > 4990 nM

---

Target: Prostaglandin D2 receptor (Homo sapiens)
Sequence (Q13258 whole entry): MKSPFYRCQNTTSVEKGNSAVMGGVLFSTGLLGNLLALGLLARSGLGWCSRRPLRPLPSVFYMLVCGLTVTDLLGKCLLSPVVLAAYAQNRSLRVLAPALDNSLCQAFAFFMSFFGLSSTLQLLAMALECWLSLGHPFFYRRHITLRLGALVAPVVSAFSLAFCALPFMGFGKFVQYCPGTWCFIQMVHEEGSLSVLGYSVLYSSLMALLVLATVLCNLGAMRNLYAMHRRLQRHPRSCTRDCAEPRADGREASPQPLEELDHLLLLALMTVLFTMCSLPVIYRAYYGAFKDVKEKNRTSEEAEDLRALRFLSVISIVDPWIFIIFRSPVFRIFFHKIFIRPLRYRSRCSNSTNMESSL
Experiment: Displacement of [3H]PGD2 from human DP1 receptor expressed in HEK293-EBNA cells by scintillation counting
MEASURED ATTRIBUTE: Ki

Recorded Ki, per entry:
C[C@H](NC(=O)c1cscc1Cc1cccc(Cl)c1)c1ccc(C(=O)O)cc1 = > 7280 nM
Cc1sc(C)c(C(=O)N[C@@H](C)c2ccc(C(=O)O)cc2)c1Cc1ccc(C(F)(F)F)cc1 = > 5470 nM
O=C(O)c1ccc(CNC(=O)c2c(Cl)sc(Cl)c2Cc2cccc(Cl)c2)cc1 = > 628 nM
Cc1sc(C)c(C(=O)NC2(c3ccc(C(=O)O)cc3)CC2)c1Cc1cccc(C(F)(F)F)c1 = > 4990 nM
Cc1sc(C)c(C(=O)NC2(c3ccc(C(=O)O)cc3)CC2)c1Cc1ccc(C(F)(F)F)cc1 = > 3900 nM

Next compound, please.
Ask: Value lookup for Ki; key = Cc1sc(C)c(C(=O)N[C@@H](C)c2ccc(C(=O)O)cc2)c1Cc1cccc(C(F)(F)F)c1
Result: > 3460 nM

---

assay: Plasma clearance in C57BL/6 mouse at 20 mg/kg, po and 5 mg/kg, iv; type: ADME, organism-based
MEASURED ATTRIBUTE: clearance
Could you kindly put the unit after your number?

Ask: Value lookup for clearance; key = Cc1sc(C)c(C(=O)NC2(c3ccc(C(=O)O)cc3)CC2)c1Cc1ccc(C(F)(F)F)cc1
Result: 23 mL/min/kg

---

experiment: Half life in C57BL/6 mouse at 5 mg/kg, iv; assay type: ADME, organism-based; design: dose 5 mg/kg, route intravenous; conditions: in vivo
MEASURED ATTRIBUTE: half-life (h)
Answer with a number only, understood to be in h.

Ask: Value lookup for half-life; key = Cc1sc(C)c(C(=O)NC2(c3ccc(C(=O)O)cc3)CC2)c1Cc1ccc(C(F)(F)F)cc1
Result: 15

---

molecular target: UniProt:P35408; test: Displacement of [3H]PGE2 from human EP4 receptor expressed in HEK293-EBNA cells by scintillation counting; type: cell-based
Measured Ki, listed per entry.
Could you kindly put the unit after your number?

Cc1sc(C)c(C(=O)N[C@@H](C)c2ccc(C(=O)O)cc2)c1Cc1ccc(Cl)cc1 = 2.9 nM

Ask: Value lookup for Ki; key = Cc1sc(C)c(C(=O)N[C@@H](C)c2ccc(C(=O)O)cc2)c1Cc1cccc(C(F)(F)F)c1
Result: 2.5 nM

Ask: Now the compound Cc1sc(C)c(C(=O)NC2(c3ccc(C(=O)O)cc3)CC2)c1Cc1cccc(C(F)(F)F)c1
Result: 0.75 nM

Ask: Now the compound Cc1sc(C)c(C(=O)NC2(c3ccc(C(=O)O)cc3)CC2)c1Cc1ccc(C(F)(F)F)cc1
Result: 0.56 nM

Ask: Now the compound O=C(O)c1ccc(CNC(=O)c2c(Cl)sc(Cl)c2Cc2cccc(Cl)c2)cc1
Result: 0.72 nM

Ask: Now the compound C[C@H](NC(=O)c1cscc1Cc1cccc(Cl)c1)c1ccc(C(=O)O)cc1
Result: 6.4 nM

Ask: Now the compound C[C@@H](NC(=O)c1c(Cl)sc(Cl)c1Cc1cccc(Cl)c1)c1ccc(C(=O)O)cc1
Result: 0.87 nM

Ask: Now the compound Cc1sc(C)c(C(=O)NC2(c3ccc(-c4nn[nH]n4)cc3)CC2)c1Cc1ccc(C(F)(F)F)cc1
Result: 0.63 nM

---

test: Half life in Beagle dog at 1 mg/kg, iv; format: ADME, organism-based, Canis lupus familiaris; design: dose 1 mg/kg, route intravenous; details: in vivo
MEASURED ATTRIBUTE: half-life

Ask: Value lookup for half-life; key = Cc1sc(C)c(C(=O)NC2(c3ccc(C(=O)O)cc3)CC2)c1Cc1ccc(C(F)(F)F)cc1
Result: 8.8 h

---

biological target: Prostaglandin E2 receptor EP4 subtype (Homo sapiens, UniProt P35408); test: Antagonist activity at human EP4 receptor expressed in HEK293 cells assessed as inhibition of PGE2-induced cAMP accumulation by scintillation proximity assay; assay type: functional, cell-based
Sequence (P35408 whole entry): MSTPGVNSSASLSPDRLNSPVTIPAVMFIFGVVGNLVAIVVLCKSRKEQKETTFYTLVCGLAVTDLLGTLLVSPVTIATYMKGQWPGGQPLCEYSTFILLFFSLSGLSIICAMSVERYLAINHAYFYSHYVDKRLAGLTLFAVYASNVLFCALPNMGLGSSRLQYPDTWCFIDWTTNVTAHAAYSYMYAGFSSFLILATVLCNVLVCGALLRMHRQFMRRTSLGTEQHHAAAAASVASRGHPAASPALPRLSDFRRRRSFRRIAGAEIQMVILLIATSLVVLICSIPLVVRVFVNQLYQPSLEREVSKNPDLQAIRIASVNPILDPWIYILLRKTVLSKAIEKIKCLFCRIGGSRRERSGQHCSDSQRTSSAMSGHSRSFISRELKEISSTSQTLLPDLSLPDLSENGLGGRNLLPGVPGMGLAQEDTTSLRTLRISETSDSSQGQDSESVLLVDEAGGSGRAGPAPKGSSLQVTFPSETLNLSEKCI
MEASURED ATTRIBUTE: pIC50
// pIC50 is dimensionless: -log10 of concentration (M)

Ask: Value lookup for pIC50; key = Cc1sc(C)c(C(=O)NC2(c3ccc(C(=O)O)cc3)CC2)c1Cc1ccc(C(F)(F)F)cc1
Result: 8.60

Ask: Now the compound Cc1sc(C)c(C(=O)N[C@@H](C)c2ccc(C(=O)O)cc2)c1Cc1ccc(C(F)(F)F)cc1
Result: 8.35

Ask: Now the compound Cc1sc(C)c(C(=O)N[C@@H](C)c2ccc(C(=O)O)cc2)c1Cc1cccc(Cl)c1
Result: 8.07

Ask: Now the compound C[C@H](NC(=O)c1cscc1Cc1cccc(Cl)c1)c1ccc(C(=O)O)cc1
Result: 7.92

Ask: Now the compound O=C(O)c1ccc(CNC(=O)c2c(Cl)sc(Cl)c2Cc2cccc(Cl)c2)cc1
Result: 8.80

Ask: Now the compound C[C@@H](NC(=O)c1c(Cl)sc(Cl)c1Cc1cccc(Cl)c1)c1ccc(C(=O)O)cc1
Result: 8.74

Ask: Now the compound Cc1sc(C)c(C(=O)N[C@@H](C)c2ccc(C(=O)O)cc2)c1Cc1cccc(C(F)(F)F)c1
Result: 8.33

---

pKi: −log10 of the molar value.
Quick record of pKi values for Prostacyclin receptor (Homo sapiens).

Ask: Value lookup for pKi; key = Cc1sc(C)c(C(=O)NC2(c3ccc(C(=O)O)cc3)CC2)c1Cc1ccc(C(F)(F)F)cc1
Result: < 4.66

Ask: Now the compound C[C@H](NC(=O)c1cscc1Cc1cccc(Cl)c1)c1ccc(C(=O)O)cc1
Result: < 5.14

Ask: Now the compound Cc1sc(C)c(C(=O)N[C@@H](C)c2ccc(C(=O)O)cc2)c1Cc1ccc(C(F)(F)F)cc1
Result: < 5.26

Ask: Now the compound O=C(O)c1ccc(CNC(=O)c2c(Cl)sc(Cl)c2Cc2cccc(Cl)c2)cc1
Result: < 6.20

Ask: Now the compound Cc1sc(C)c(C(=O)NC2(c3ccc(C(=O)O)cc3)CC2)c1Cc1cccc(C(F)(F)F)c1
Result: < 5.30

Ask: Now the compound Cc1sc(C)c(C(=O)NC2(c3ccc(-c4nn[nH]n4)cc3)CC2)c1Cc1ccc(C(F)(F)F)cc1
Result: < 6.30
